Reference for the values: paper PMC7391777

Biological target: C. elegans ACC (POD-2) (Caenorhabditis elegans, UniProt H2L0M0)
Construct: native enzyme in total protein extract of C. elegans pellet, not purified
Sequence (H2L0M0 1-2165): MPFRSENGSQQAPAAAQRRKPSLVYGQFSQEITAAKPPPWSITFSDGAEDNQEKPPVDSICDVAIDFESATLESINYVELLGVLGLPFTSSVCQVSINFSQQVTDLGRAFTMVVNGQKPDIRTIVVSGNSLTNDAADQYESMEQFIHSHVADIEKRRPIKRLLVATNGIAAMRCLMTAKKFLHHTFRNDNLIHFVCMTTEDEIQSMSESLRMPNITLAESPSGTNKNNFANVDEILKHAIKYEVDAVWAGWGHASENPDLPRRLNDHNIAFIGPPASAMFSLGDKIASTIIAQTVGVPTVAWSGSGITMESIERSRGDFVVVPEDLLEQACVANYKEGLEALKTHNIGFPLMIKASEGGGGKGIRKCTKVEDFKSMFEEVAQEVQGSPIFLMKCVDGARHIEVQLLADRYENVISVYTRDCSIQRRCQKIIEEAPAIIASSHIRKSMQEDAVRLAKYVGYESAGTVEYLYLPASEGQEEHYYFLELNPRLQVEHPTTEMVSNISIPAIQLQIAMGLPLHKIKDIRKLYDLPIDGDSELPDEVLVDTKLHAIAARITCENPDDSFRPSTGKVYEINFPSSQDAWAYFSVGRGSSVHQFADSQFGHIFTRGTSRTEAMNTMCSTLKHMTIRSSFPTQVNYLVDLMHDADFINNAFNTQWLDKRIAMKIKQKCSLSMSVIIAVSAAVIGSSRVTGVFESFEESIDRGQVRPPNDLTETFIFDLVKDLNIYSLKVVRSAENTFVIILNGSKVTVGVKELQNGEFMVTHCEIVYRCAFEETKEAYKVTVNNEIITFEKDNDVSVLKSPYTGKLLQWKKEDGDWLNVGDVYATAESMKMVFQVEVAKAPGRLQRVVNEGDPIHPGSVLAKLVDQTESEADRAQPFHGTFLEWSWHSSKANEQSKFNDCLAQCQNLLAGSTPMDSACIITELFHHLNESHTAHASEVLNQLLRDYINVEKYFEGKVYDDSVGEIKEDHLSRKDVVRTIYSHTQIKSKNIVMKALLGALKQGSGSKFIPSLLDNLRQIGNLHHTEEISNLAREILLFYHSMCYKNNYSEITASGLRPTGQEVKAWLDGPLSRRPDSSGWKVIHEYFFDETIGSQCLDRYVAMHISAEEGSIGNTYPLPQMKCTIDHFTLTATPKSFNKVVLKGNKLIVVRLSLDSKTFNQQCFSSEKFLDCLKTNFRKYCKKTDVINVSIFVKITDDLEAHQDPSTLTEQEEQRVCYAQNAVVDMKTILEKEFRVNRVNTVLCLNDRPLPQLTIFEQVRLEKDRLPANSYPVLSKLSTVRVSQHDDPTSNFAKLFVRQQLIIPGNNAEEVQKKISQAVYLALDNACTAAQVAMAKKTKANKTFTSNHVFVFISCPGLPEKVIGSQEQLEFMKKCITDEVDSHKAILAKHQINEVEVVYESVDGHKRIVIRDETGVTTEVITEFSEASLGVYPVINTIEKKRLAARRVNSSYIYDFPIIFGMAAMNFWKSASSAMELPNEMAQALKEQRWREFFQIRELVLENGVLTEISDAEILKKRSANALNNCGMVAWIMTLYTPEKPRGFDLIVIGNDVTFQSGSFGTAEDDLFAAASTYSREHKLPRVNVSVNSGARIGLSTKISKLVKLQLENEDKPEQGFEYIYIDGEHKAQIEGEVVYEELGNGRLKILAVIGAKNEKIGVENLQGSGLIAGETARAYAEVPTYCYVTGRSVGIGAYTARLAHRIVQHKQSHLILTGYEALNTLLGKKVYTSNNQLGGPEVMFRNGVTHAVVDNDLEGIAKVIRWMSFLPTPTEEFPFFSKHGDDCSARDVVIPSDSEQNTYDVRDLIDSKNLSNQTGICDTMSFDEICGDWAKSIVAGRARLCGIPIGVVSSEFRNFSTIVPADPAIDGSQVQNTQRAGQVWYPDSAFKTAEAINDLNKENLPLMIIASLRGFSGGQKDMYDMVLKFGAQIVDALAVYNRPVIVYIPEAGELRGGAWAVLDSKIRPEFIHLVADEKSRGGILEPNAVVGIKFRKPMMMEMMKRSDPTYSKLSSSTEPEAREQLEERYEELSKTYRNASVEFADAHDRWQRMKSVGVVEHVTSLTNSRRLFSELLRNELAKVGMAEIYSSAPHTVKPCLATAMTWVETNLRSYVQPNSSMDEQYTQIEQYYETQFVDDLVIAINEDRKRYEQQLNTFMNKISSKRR
Test: ACC activity in total protein extract, radiolabeled sodium bicarbonate
Assay type: biochemical
Settings: total protein extract of C. elegans
quantity measured: IC50 (µM)

>>> print(df.to_string())
                                   compound  quantity_measured  value
0  COC1CCC2(CC1)NC(=O)C(c1cc(C)ccc1C)=C2O (stereo not shown)               IC50     50
